- PROTOCOL_DETAILS: Resistance index, ratio of IC50 for human NCI-H460 cells to IC50 for H460-R9A cells
- Type: functional
# label = Met if Ratio IC50 < 4 else Not met

[[record]]
compound = "CC(C)(Oc1ccc(-c2ccc(C=CC(=O)O)cc2)cc1C12CC3CC(CC(C3)C1)C2)C(=O)NO"
cat = "Not met"

[[record]]
compound = "O=C(O)C=Cc1ccc(-c2ccc(OCCCCC(=O)NO)c(C34CC5CC(CC(C5)C3)C4)c2)cc1"
cat = "Not met"

[[record]]
compound = "O=C(O)C=Cc1ccc(-c2ccc(OCCCC(=O)NO)c(C34CC5CC(CC(C5)C3)C4)c2)cc1"
cat = "Not met"

[[record]]
compound = "CC(Oc1ccc(-c2ccc(C=CC(=O)O)cc2)cc1C12CC3CC(CC(C3)C1)C2)C(=O)NO (stereo not drawn)"
cat = "Not met"


Q: Given the entry O=C(O)C=Cc1ccc(-c2ccc(OCC(=O)NO)c(C34CC5CC(CC(C5)C3)C4)c2)cc1 , would its reported Ratio IC50 be below 4?
Ans: Not met

Q: Lab note: confirm whether the reported Ratio IC50 for this compound is below 4, equality not counting. compound: O=C(O)C=Cc1ccc(-c2ccc(OCCC(=O)NO)c(C34CC5CC(CC(C5)C3)C4)c2)cc1
Ans: Met

Q: A record lists O=C(O)C=Cc1ccc(-c2ccc(O)c(C34CC5CC(CC(C5)C3)C4)c2)cc1 . Is its Ratio IC50 below 4?
Ans: Not met

Q: Record O=C(O)C=Cc1ccc(-c2ccc(OCCCCCCCC(=O)NO)c(C34CC5CC(CC(C5)C3)C4)c2)cc1 : is its Ratio IC50 strictly below 4?
Ans: Met
